Source of measurements: patent US20190106487A1

# target desc: T1, human IL-1RAcP on 293T/17-FR cells (human, UniProt Q9NPH3 21-570)
# T1 sequence (looked up): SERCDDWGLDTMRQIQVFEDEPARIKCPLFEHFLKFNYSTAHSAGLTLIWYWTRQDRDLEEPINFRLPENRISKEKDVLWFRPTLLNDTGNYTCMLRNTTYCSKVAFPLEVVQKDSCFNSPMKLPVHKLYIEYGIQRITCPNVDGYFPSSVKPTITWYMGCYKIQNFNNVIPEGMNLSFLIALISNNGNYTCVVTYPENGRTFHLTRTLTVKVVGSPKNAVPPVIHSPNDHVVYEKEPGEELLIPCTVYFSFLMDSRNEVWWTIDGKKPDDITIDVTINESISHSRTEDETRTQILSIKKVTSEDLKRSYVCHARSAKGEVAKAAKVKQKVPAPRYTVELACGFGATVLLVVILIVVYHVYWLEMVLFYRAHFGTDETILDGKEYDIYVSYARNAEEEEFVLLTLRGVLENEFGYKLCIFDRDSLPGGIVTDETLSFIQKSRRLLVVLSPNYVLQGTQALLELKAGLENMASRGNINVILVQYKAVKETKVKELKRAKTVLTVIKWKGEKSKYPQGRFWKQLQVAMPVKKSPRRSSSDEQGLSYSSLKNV
# assay details: cell-based or functional assay
The following binders are shown together with reported functional reporter gene assay (% inhibition), 0.04 µg/mL mAb values.
Respond with the bare value in %.

# annotated cases, reported functional reporter gene assay (% inhibition), 0.04 µg/mL mAb shown
P013.S.01.B.G04 (antibody, V domains shown, rabbit monoclonal antibody; also called P013.A.00013.G06) VH: QSVEESGGRLVTPGTPLTLTCTVSGFSLSVYAMGWFRQAPGKGLEWIGDIYIASDGTWYANWAKGRFTISKTSTTVDLKITSPTTEDTATYFCAREIDAGYVGYGFNLWGQGTLVTVSS VL: AQALTQTPSPVSAAVGGTVTINCQSSQSVYSDYLGWYQQKPGQPPKLLIYWASKLETGVPSRFKGSGSGTQFTLTISGVQSDDAATYYCQATYYGSGWYRAFGGGTEVVVK
15
P013.S.02.B.C04 (antibody, V domains shown, rabbit monoclonal antibody; also called P013.A.00085.H07) VH: QQLEQSGGGLVKPGGSLELCCKASGFSLSSSYWICWVRQAPGKGLEWIGCIYAGSSGSTYYANWVNGRFTLSRDIDQSTGCLQLSSLTAADTAMYYCARSIVDFSSGWGDLWGQGTLVTVSS VL: ALVMTQTPSPVSAAVGGTVTINCQASEDIYSNLAWYQQKPGQPPKLLMYGVSTLASGVPSRFSDSGSGTEFTLTISGLQSDDAATYYCLGVYTYISDVYYTFGGGTEVVVK
29
P013.S.02.B.D01 (antibody, V domains shown, rabbit monoclonal antibody; also called P013.A.00141.G02) VH: LEQSGGGAEGGLVKPGGSLELCCKASGFSLSSNYWMCWVRQAPGKGLEWIGCIYAGSSDSTYYASWVNGRFTLSRDIDQSTGCLQLNSLTAADTAMYYCASPGYGGYGYYGLWGQGTLVTVSS VL: ALVMTQTPSPVSAAVGGTVTINCQASEDIYSNLAWFQQKPGQPPKLLIYDASTLASGVPSRFSGSGSGTEFTLTISGLQSDDAATYYCLGVYTYISPDGTDNAFGGGTEVVVK
9

We now examine a further binder.
functional reporter gene assay (% inhibition), 0.04 µg/mL mAb recorded for this binder, P013.S.02.B.G02 (antibody, V domains shown, rabbit monoclonal antibody; also called P013.A.00014.C07) VH: QSLEESGGDLVKPGASLTLTCTASGFSLSSGGMTWVRQAPGKGLEWIGYINTGSGRTYYASWAKGRFIISKTSSTTVSLQMTSLTAADTATYFCAGGLPSDLWGPGTLVTVSS VL: DIVMTQTPSSVEAAVGGTVTIKCQASQSINSRLAWYQQKPGQPPKLLIYDASTLASGVSSRFSGSGTEFTLTISDLESADGATYYCLSHYLTSSSSYGNAFGGGTEVVVK , is -2
